Each recorded value in this set is attributed to a melting point compilation (Tetko et al.; mined from patent text by program, amines drawn as free bases though some values may be those of a salt).

Task for the reader: assign each of the following molecules its reported melting point.

GET /values?readout=melting point&item= `COC(=O)c1ccc(SC)c(OC(C)C)c1`
41 to 43 °C

GET /values?readout=melting point&item= CCC(CC)C(NS(=O)(=O)c1ccc(Cl)cc1)c1ccnn1-c1ccccc1 (stereo not given)
135 to 136 °C

GET /values?readout=melting point&item= `CC(C)C(=O)Nc1ccccc1C(F)(F)F`
114 °C

GET /values?readout=melting point&item= `CCOC(=O)C(Oc1ccc(-c2ccc(Cl)cc2)cc1)(C(F)(F)F)C(F)(F)F`
44 to 45 °C

GET /values?readout=melting point&item= `O=S(=O)(O)c1ccc(NCc2ccc(Cl)cc2Cl)cc1`
> 275 °C

GET /values?readout=melting point&item= CCOC(=O)C(C)(C)c1ccc(C(O)CCCN2CCC(C(O)(c3ccccc3)c3ccccc3)CC2)cc1 (stereo not given)
141 to 142 °C

GET /values?readout=melting point&item= `CCN(CC)CCCn1[nH]c(C)c2c(=O)nc(-c3ccncc3)nc1-2`
164 to 166 °C

GET /values?readout=melting point&item= `BrCCCOc1ccc(OCCCBr)cc1`
78 to 80 °C

GET /values?readout=melting point&item= `CCOC(=O)c1ccsc1NC(=O)NCCN1CCN(c2ccc(OC)cc2)CC1`
103 to 106 °C

GET /values?readout=melting point&item= `NC[C@@H]1CCc2cc(S(=O)(=O)Nc3ccc(-n4ccn(CCCC5CCCCC5)c4=O)cc3)ccc2O1`
108 to 110 °C
